Consider the following pKi values measured on Beta-1 adrenergic receptor (Homo sapiens, UniProt P08588).
Sequence (P08588 whole entry): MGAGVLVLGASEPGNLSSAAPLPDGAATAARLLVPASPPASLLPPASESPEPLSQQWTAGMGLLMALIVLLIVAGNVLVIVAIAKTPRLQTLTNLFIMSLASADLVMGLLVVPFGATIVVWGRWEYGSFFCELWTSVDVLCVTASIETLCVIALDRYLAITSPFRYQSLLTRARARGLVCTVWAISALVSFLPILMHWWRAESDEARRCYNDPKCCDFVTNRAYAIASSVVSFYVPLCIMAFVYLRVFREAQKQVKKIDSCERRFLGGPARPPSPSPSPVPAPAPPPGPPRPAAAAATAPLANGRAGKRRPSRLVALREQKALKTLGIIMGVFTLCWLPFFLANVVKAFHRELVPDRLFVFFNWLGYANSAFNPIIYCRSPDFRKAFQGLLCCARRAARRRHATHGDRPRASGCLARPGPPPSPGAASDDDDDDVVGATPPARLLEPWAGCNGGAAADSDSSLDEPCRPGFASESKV
Field pKi (float): negative decimal logarithm of the concentration in molar.

In: Can you look up the measured pKi of "Cc1cccc(N2CCNCC2)c1C" for me?
Out: 6.27

In: Can you look up the measured pKi of "Clc1cccc(N2CCNCC2)c1Cl" for me?
Out: 6.97

In: Can you look up the measured pKi of "FC(F)(F)c1ccnc(N2CCNCC2)c1" for me?
Out: 5.63

In: Can you look up the measured pKi of "CSc1nc(N2CCNCC2)c2sc3c(c2n1)CCCC3" for me?
Out: 6.70

In: Can you look up the measured pKi of "Cc1cc(N2CCNCC2)nc2ccccc12" for me?
Out: 6.65

In: Can you look up the measured pKi of "COc1cc(OC)cc(N2CCNCC2)c1" for me?
Out: 5.80

In: Can you look up the measured pKi of "c1cc(N2CCNCC2)c2cc[nH]c2c1" for me?
Out: 7.17

In: Can you look up the measured pKi of "Cc1ccc(N2CCNCC2)cc1C" for me?
Out: 6.13

In: Can you look up the measured pKi of "Clc1cc(Cl)cc(N2CCNCC2)c1" for me?
Out: 7.07

In: Can you look up the measured pKi of "Clc1ccc(N2CCNCC2)cc1Cl" for me?
Out: 6.67

In: Can you look up the measured pKi of "FC(F)(F)c1cc(N2CCNCC2)cc(C(F)(F)F)c1" for me?
Out: 5.90

In: Can you look up the measured pKi of "FC(F)(F)c1ccnc(N2CCNCC2)n1" for me?
Out: 5.60

In: Can you look up the measured pKi of "Cc1cc(N2CCNCC2)c2ccccc2n1" for me?
Out: 5.80

In: Can you look up the measured pKi of "c1csc(-c2cccc3ccc(N4CCNCC4)nc23)c1" for me?
Out: 6.60
